Ref: the supplement of paper PMC4862054

- System: HCC1143
- TEST: normalised response (% of control), CellTiter-Glo; higher = more viable cells (100 = DMSO, 0 = benzethonium chloride kill control)
- CONDITION INFO: incubation time: 72 h
Outcome: T for normalised response of at least 40%; F for anything lower.

Illustrative cases are given below, each with its answer.
NC(=O)c1cccc2cn(-c3ccc([C@@H]4CCCNC4)cc3)nc12 [MK-4827] (10000 nM)
T
CC[C@@H]1C(=O)N(C)c2cnc(Nc3ccc(C(=O)N[C@H]4CC[C@H](N5CCN(CC6CC6)CC5)CC4)cc3OC)nc2N1C(C)C [Volasertib] (1000 nM)
T
CO[C@H]1C[C@@H]2CC[C@@H](C)[C@@](O)(O2)C(=O)C(=O)N2CCCC[C@H]2C(=O)O[C@H]([C@H](C)C[C@@H]2CC[C@@H](O)[C@H](OC)C2)CC(=O)[C@H](C)/C=C(\C)[C@@H](O)[C@@H](OC)C(=O)[C@H](C)C[C@H](C)/C=C/C=C/C=C/1C [Sirolimus] (100 nM)
T
CCc1cnn2c(NCc3ccc[n+]([O-])c3)cc(N3CCCC[C@H]3CCO)nc12 [Dinaciclib] (1000 nM)
F
CC(C)n1nc(-c2ccc3oc(N)nc3c2)c2c(N)ncnc21 [INK128] (1000 nM)
F

Is it the case that COc1cc2c(Oc3ccc(NC(=O)C4(C(=O)Nc5ccc(F)cc5)CC4)cc3F)ccnc2cc1OCCCN1CCOCC1 [Foretinib] (1000 nM) has normalised response reaching or exceeding 40%?
T

And for Cn1cc(C[C@@H](N)C(=O)O)c2ccccc21 [1-methyl-D-tryptophan] (5000 nM) ?
T

And for CO[C@H](C(=O)[C@@H](O)[C@@H](C)O)[C@@H]1Cc2cc3cc(O[C@H]4C[C@@H](O[C@@H]5C[C@@H](O)[C@H](O)[C@@H](C)O5)[C@H](O)[C@@H](C)O4)c(C)c(O)c3c(O)c2C(=O)[C@H]1O[C@H]1C[C@@H](O[C@@H]2C[C@@H](O)[C@@H](O[C@@H]3C[C@](C)(O)[C@H](O)[C@@H](C)O3)[C@@H](C)O2)[C@H](O)[C@@H](C)O1 [Plicamycin] (10000 nM) ?
F
